target: T1, nanodisc embedded human CACNG1 expressed with a C-terminal PADRE-Flag-His tag (human, UniProt Q06432 1-222); assay: SPR, anti-His-captured nanodisc, 25 C
T1 construct: Captured on an anti-His Biacore surface; also called human CACNG1 nanodisc; CACNG1 nanodisc; not shown: C-terminal tag
T1 sequence (Q06432 whole entry): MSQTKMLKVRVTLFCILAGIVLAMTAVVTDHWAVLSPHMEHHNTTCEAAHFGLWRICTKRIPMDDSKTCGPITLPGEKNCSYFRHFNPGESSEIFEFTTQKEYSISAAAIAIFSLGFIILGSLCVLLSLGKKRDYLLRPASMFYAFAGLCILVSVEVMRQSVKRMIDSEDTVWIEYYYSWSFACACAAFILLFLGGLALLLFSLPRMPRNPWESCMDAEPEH
Endpoint name: t1/2 (min)

{"Binder": "REGN10712 (antibody, human IgG4 S228P, lambda, V domains shown, hIgG4) VH: QVQLVESGGGVVQPGRSLRLSCAASGFTFSTYGMYWVRQTPGKGLEWVTVISFDGNKKYYADSVKGRFTISRDNSKNTLFLQMNSLKTEDTAVYYCAKSSNWNYGSFDIWGQGTMVTVSS VL: QSVLTQPPSVSGAPGQRVTISCTGSSSNIGAGYDVHWYQQLPGTAPRLLISYNSNRPSGVPDRFSGSKSGTSASLAITGLQAEDEADYYCQSYDRSLSGSVFGGGTQLTVLG", "Recorded measurement": 3.5}
{"Binder": "REGN9908 (antibody, mouse IgG2b, V domains shown, mIgG2b) VH: EVQLLESGGGLAQPGGSLRLSCAASGFTFSSYAMSWVRQAPGKGLEWVSSVSGSGGTTYYAASVKGRFTVSRDNSKKTLYLQMNSLRAEDTAVYYCGKGGYCSSSGCRHYGMDVWGQGTTVTVSA VL: QSVLTQPPSASGTPGQRVAISCSGSNSNIGNNYLYWYQQIPGTTPKLLIYRNNQRPSGVPDRFSASKSGTSASLAISGLRSGDEADYYCAAWDDSLSGYVFGTGTKVTVLG", "Recorded measurement": 2.9}
{"Binder": "REGN7660 (antibody, human IgG4 S228P, kappa, V domains shown, hIgG4) VH: EVQLVESGGGLVQPGGSLKLSCTASGLTLSDSAMHWVRQASGKGLEWVGRIRNKANRYATEYAASVKGRFTISRDDSKNTAYLQMNSLKTEDTAVYYCTRNWKIFLFDYWGQGTLVTVSS VL: EIVLTQSPGTLTLSPGERATLSCRASQSVGSKYLAWFQQKRGQAPRLLIYGASSRTSGIPDRISGSGSGTDFTLTISRLEPEDFAVYYCQQYGSSPWTFGQGTKVEIKR", "Recorded measurement": 0.5}
{"Binder": "REGN9909 (antibody, mouse IgG2a, kappa, V domains shown, mIgG2a) VH: EVQLLESGGGLVQPGGSLRLSCAASGFTFNNYGMSWVRQGPGKGLEWVSSISGSGGTTFYADSVKGRFTISRDNSKNTLYLQMNSLRAEDTAVYYCGKGGYCSSSGCRHYGMDVWGQGTTVTVSS VL: QSVLTQPPSASGTPGQRVTISCSGSSSNIGNNYIYWYQRLPGTTPKLLIYRNNQRPSGVPDRFSGSKSGTSASLAISGLRSEDEADYYCAAWDDTLSGYVFGTGTKVTVLR", "Recorded measurement": 8.4}
{"Binder": "H2aM31944N (antibody, mouse IgG2a, kappa, V domains shown, mIgG2a; also called CACNG1 mIgG2a antibody) VH: QVQLVESGGGVVQPGRSLRLSCEASGITFRNYGMHWVRQAPGKGLEWVAVMWYDGSNKYYADSVKGRFTISRDNSKNTVYLQMNSLRAEDTAVYYCARRGHIATAAPFDYWGQGTLVTVSS VL: DIQMTQSPSSLSASVGDRVTISCRASQSISSYLNWYQQKPGKAPKVLMYAASSLQSGVPSRFSGSGSGTDFTLTISSLQPEDFATYYCQQSYSTPPITFGQGTRLEIKR", "Recorded measurement": 2.9}
{"Binder": "H2aM31941N (antibody, mouse IgG1, kappa, V domains shown, Both names are treated as one molecule; also called H1M31941N; lot H1M31941N-L1) VH: QVQLVQSGAEVKKPGASVKVSCKASGYAFTTYGITWVRQAPGQGLEWMGWISAYNGNTNYAEKVQGRFTMTTDTSTNTAYMELRSLRSDDTAVYFCARKGHYGSGTYYNPFGFDFWGQGTMVTVSS VL: EIMLMQSPGTLSLSPGERATLSCRASQSVSSSYLAWYQQKPGQAPRLLIYGASSRATDIPDRFSGSGSGTDFTLTISRLEPEDFAVYFCQQYYGSPWTFGQGTKVEIKR", "Recorded measurement": 28.4}
